Give remaining (relative) activity after 2 hours of plasma incubation for every item shown.
protocolSummary: Functional stability assay in human plasma
reportedConditions: human plasma, 2 hours
Where a SMILES comes first, the peptide text is derived from it. [ ]: non-standard residue; d: D form.
Write it as a number; the unit % goes unstated.

Req: I have this compound here, CSCC[C@H](NC(=O)[C@H](N)CC(C)C)C(=O)N[C@@H](CCCNC(=N)N)C(=O)N[C@@H](Cc1c[nH]c2ccccc12)C(=O)N[C@@H](CO)C(=O)N[C@@H](CCCNC(=N)N)C(=O)N[C@@H](CCCCN)C(=O)N[C@@H](CCSC)C(=O)N1CCC[C@H]1C(=O)N[C@@H](CS)C(=O)N[C@H](C(=O)N[C@@H](CO)C(=O)O)C(C)C [JM #36] (H-[dL]MRWSRKMPCVS-OH; C-terminus assumed) , and I need its recorded remaining (relative) activity after 2 hours of plasma incubation.
Resp: 85

Req: So what does the record say about remaining (relative) activity after 2 hours of plasma incubation for CSCC[C@@H](N)C(=O)N[C@@H](CC(C)C)C(=O)N[C@@H](CCCNC(=N)N)C(=O)N[C@@H](Cc1c[nH]c2ccccc12)C(=O)N[C@@H](CO)C(=O)N[C@@H](CCCNC(=N)N)C(=O)N[C@@H](CCCCN)C(=O)N[C@@H](CCSC)C(=O)N1CCC[C@H]1C(=O)N[C@@H](CS)C(=O)N[C@H](C(=O)N[C@@H](CO)C(=O)O)C(C)C [JM #28] (H-[dM]LRWSRKMPCVS-OH; C-terminus assumed) ?
Resp: 96
